Each recorded value in this set is attributed to ChEMBL document CHEMBL6178012.

assay: in vivo; conditions: male, Sprague-Dawley, rat, po
MEASURE: bioavailability at 24 h (%)
Form entry: value (%) — number only.

Can you share its bioavailability at 24 h? I mean this compound: Cc1cc(Nc2nc(N(C)c3c(F)cc(S(C)(=O)=O)cc3F)nc(-c3cn(C)cn3)c2C2CC2)n[nH]1
28

###

assay: in vitro; conditions: human, cryopreserved hepatocytes
hepatocyte CLint at 1 µM values, listed per item

Check out these entries, answers already filled in.
Cc1cc(Nc2nc(N(C)c3c(F)cc(S(C)(=O)=O)cc3F)nc(-c3cn(C)nc3CO)c2C2CC2)n[nH]1    12.8 µL/min/1e6 cells
Cc1cc(Nc2nc(N(C)c3cc(F)c(S(C)(=O)=O)cc3F)nc(-c3cnn(C)c3)c2C2CC2)n[nH]1    42 µL/min/1e6 cells
Cc1cc(Nc2nc(N(C)c3c(F)cc(S(C)(=O)=O)cc3F)nc(-c3cnn(C)c3)c2C2CC2)n[nH]1    5.3 µL/min/1e6 cells

Fill in: hepatocyte CLint at 1 µM of Cc1cc(Nc2nc(N(C)c3ccc(S(=O)(=O)C4CC4)cc3F)nc(-c3cnn(C)c3)c2C2CC2)n[nH]1 is ___
8.2 µL/min/1e6 cells

// lookup hepatocyte CLint at 1 µM for Cc1cc(Nc2nc(N(C)c3c(F)cc(S(C)(=O)=O)cc3F)nc(-c3cn4c(n3)COCC4)c2C2CC2)n[nH]1
< 3.8 µL/min/1e6 cells
